Test: Initial color of polymer plate (visual observation, YI by color-difference meter)
Assay type: physicochemical
Conditions: color-difference meter SM-4
Lab note: cut-off is 4. Strictly less in Initial color, YI is 1.0. Exactly 4 or more is 0.0.

Molecule	Class Name
O=C1C2=C(C3CC3)c3c(sc4c3CCCC4)C3(C4CC5CC(C4)CC3C5)C2C(=O)N1S(=O)(=O)c1ccccc1 (centres unmarked)	0.0
COc1cc(OC)c2c(c1)C(C)=C1C(=O)N(C#N)C(=O)C1C21C2CC3CC(C2)CC1C3 (centres unmarked)	1.0
CCC1=C2C(=O)N(S(=O)(=O)O)C(=O)C2C2(c3c(OC)cc(OC)cc31)C1CC3CC(C1)CC2C3 (centres unmarked)	0.0
N#CN1C(=O)C2=C(C3CC3)c3ccsc3C3(C4CC5CC(C4)CC3C5)C2C1=O (centres unmarked)	1.0
Cn1c(Cl)cc2c1C1(C3CCCC1(Cl)CCC3)C1C(=O)N(C(F)(F)F)C(=O)C1=C2c1ccccc1 (centres unmarked)	0.0
CCCCC12CCC(CC1)C21c2sc(C)c(CC)c2C(C2CC2)=C2C(=O)N(C(=O)c3cccc(C(F)(F)F)c3)C(=O)C21 (centres unmarked)	1.0

Now for another entry.
Challenge: In the record for CC(=O)N1C(=O)C2=C(C3CC3)c3cc(C)sc3C3(C4CC5CC(C4)CC3C5)C2C1=O (centres unmarked) , is Initial color, YI less than 4?
Response given: 1.0

----------
Experiment: Developed color of polymer plate under xenon light (color density, maximum absorption wavelength)
Type: physicochemical
Conditions: state of developing color, polymer plate
λ max reference
Give the number; nm is assumed, so skip it.

# annotated cases, reported λ max shown
Compound	Experimental Result
CC(=O)N1C(=O)C2=C(C)c3c4c(n(-c5ccccc5)c3C3(C5CCCC3CCC5)C2C1=O)CCCC4 (stereo not drawn)	625
CC12CCCC(CCC1)C21c2sc([N+](=O)[O-])cc2C(C2CC2)=C2C(=O)N(C(=O)c3c(F)c(F)c(F)c(F)c3F)C(=O)C21 (stereo not drawn)	593

Challenge: Name the recorded λ max of the compound listed here: CC1=C2C(=O)N(C(=O)c3cccc(C#N)c3)C(=O)C2C2(c3c1c1c(n3C)CCCC1)C1CC3CC(F)(C1)CC2(F)C3 (stereo not drawn)
Response given: 630

----------
Assay: Developed color of polymer plate under xenon light (color density, maximum absorption wavelength)
Format: physicochemical
Settings: state of developing color, polymer plate
From the text: 0.04 Parts of fulgimide compounds shown in Table 3, 70 parts of tetraethyleneglycol dimethacrylate, 15 parts of triethyleneglycol dimethacrylate, 10 parts of glycidyl methacrylate, 5 parts of 2-hydroethylmethacrylate and 1 part of perbutyl ND as a polymerization catalyst, were sufficiently mixed together until they were completely dissolved. […]
Measured Endpoint: λ max (nm)
Give the number; nm is assumed, so skip it.

# annotated cases, reported λ max shown
Compound	Experimental Result
COC12CC3CC(C1)C1(c4c(c5ccccc5n4-c4ccccc4)C(C4CC4)=C4C(=O)N(C(Cl)(Cl)Cl)C(=O)C41)C(C3)C2 (centres unmarked)	610
CCOC(=O)N1C(=O)C2=C(C)c3c(sc4ccccc34)C3(C4CCCC3(OC)CCC4)C2C1=O (centres unmarked)	520

Challenge: Name the recorded λ max of the compound listed here: COc1ccc(-c2cc3c(o2)C2(C4CC5CC(C4)CC2C5)C2C(=O)N(CC#N)C(=O)C2=C3C)cc1 (centres unmarked) [C, reference compound]
Response given: 560

Challenge: Name the recorded λ max of the compound listed here: CC(=O)N1C(=O)C2=C(C3CC3)c3cc(C)sc3C3(C4CC5CC(C4)CC3C5)C2C1=O (centres unmarked)
Response given: 562

Challenge: Name the recorded λ max of the compound listed here: O=C1C2=C(C3CC3)c3c(sc4c3CCCC4)C3(C4CC5CC(C4)CC3C5)C2C(=O)N1S(=O)(=O)c1ccccc1 (centres unmarked)
Response given: 620

Data provenance: patent US5631382A
